In this section, each of the molecules is paired with its reported IC50.
tested on: RS4;11 cells; experiment: RS4;11 cell proliferation assay (CellTiter-Glo); assay type: cell-based; details: Homo sapiens, RS4-11, 48 h, read-out: RS4;11 (nM), CTG IC50
measured.attribute: IC50

INSERT INTO assay_data (molecule, measured_attribute, measured_value) VALUES
  ('CCC12CC(C3=C(CN4CCN(c5ccc(C(=O)NS(=O)(=O)c6ccc(NCC7(F)CCOCC7)c([N+](=O)[O-])c6)c(Oc6cnc7[nH]ccc7c6)c5)CC4)CCC(C)(C)C3)(C1)C2', 'IC50', '< 100 nM'),
  ('CN1CCOC(CNc2ccc(S(=O)(=O)NC(=O)c3ccc(N4CCN(CC5=C(C67CC(C)(C6)C7)CC(C)(C)CC5)CC4)cc3Oc3cnc4[nH]ccc4c3)cc2[N+](=O)[O-])C1 (stereo not shown)', 'IC50', '< 100 nM'),
  ('CN(C)C1CCN(CC[C@H](CSc2ccccc2)Nc2ccc(S(=O)(=O)NC(=O)c3ccc(N4CCN(CC5=C(C67CC(C(F)F)(C6)C7)CC(C)(C)CC5)CC4)cc3)cc2S(=O)(=O)C(F)(F)F)CC1', 'IC50', '100 to 1000 nM'),
  ('CC1(C)CCC(CN2CCN(c3ccc(C(=O)NS(=O)(=O)c4ccc(NCC5CC6(CCOCC6)C5)c([N+](=O)[O-])c4)c(Oc4cnc5[nH]ccc5c4)c3)CC2)=C(C23CC(C)(C2)C3)C1', 'IC50', '< 100 nM'),
  ('CN(CCO)CC[C@H](CSc1ccccc1)Nc1ccc(S(=O)(=O)NC(=O)c2ccc(N3CCN(CC4=C(C56CC(C)(C5)C6)CC(C)(C)CC4)CC3)cc2)cc1S(=O)(=O)C(F)(F)F', 'IC50', '100 to 1000 nM'),
  ('CC1(C)CCC(CN2CCN(c3ccc(C(=O)NS(=O)(=O)c4ccc(NCC5(F)CCOCC5)c([N+](=O)[O-])c4)c(Oc4cnc5[nH]ccc5c4)c3)CC2)=C(C23CC(C)(C2)C3)C1', 'IC50', '< 100 nM'),
  ('CC1(C)CCC(CN2CCN(c3ccc(C(=O)NS(=O)(=O)c4ccc(NCC5CCOCC5)c([N+](=O)[O-])c4)c(Oc4cnc5[nH]ccc5c4)c3)CC2)=C(C23CC(C)(C2)C3)C1', 'IC50', '< 100 nM'),
  ('CC1(C)CCC(CN2CCN(c3ccc(C(=O)NS(=O)(=O)c4ccc(OCC5(F)CCOCC5)c([N+](=O)[O-])c4)c(Oc4cnc5[nH]ccc5c4)c3)CC2)=C(C23CC(C)(C2)C3)C1', 'IC50', '< 100 nM'),
  ('CN1CCC(F)(CNc2ccc(S(=O)(=O)NC(=O)c3ccc(N4CCN(CC5=C(C67CC(C)(C6)C7)CC(C)(C)CC5)CC4)cc3Oc3cnc4[nH]ccc4c3)cc2[N+](=O)[O-])CC1', 'IC50', '< 100 nM'),
  ('CC1(C)CCC(C23CC(C)(C2)C3)=C(CN2CCN(c3ccc(C(=O)NS(=O)(=O)c4ccc(N[C@H](CCN5CCC(O)CC5)CSc5ccccc5)c(S(=O)(=O)C(F)(F)F)c4)cc3)CC2)C1', 'IC50', '100 to 1000 nM');
